Tested on: P-gp (MDR1)
Procedure Text: Bidirectional transport across MDCK-MDR1 cell monolayers
Type: in vitro ADME, canine
Assay Context: dog, MDCK-MDR1, pH 7.4
Metric: Papp A→B at 120 min, 0.01 µM (×10⁻⁶ cm/s)
Give bare numbers, in ×10⁻⁶ cm/s.

Reported Papp A→B at 120 min, 0.01 µM of C[C@H]1O[C@@H](O[C@H]2[C@@H](O)C[C@H](O[C@H]3[C@@H](O)C[C@H](O[C@H]4CC[C@@]5(C)[C@H](CC[C@@H]6[C@@H]5C[C@@H](O)[C@]5(C)[C@@H](C7=CC(=O)OC7)CC[C@]65O)C4)O[C@@H]3C)O[C@@H]2C)C[C@H](O)[C@@H]1O : 0.26

* * *

Test system: P-gp (MDR1)
Procedure Text: Bidirectional transport across MDCK-MDR1 cell monolayers
Type: in vitro ADME, canine
Assay Context: dog, MDCK-MDR1, pH 7.4, with GG918 0.5 µM, Efflux Ratio, Digoxin 0.01 µM, MDR1-MDCK cells, +GG918 0.5 µM
Metric: efflux ratio at 120 min, 0.01 µM

C[C@H]1O[C@@H](O[C@H]2[C@@H](O)C[C@H](O[C@H]3[C@@H](O)C[C@H](O[C@H]4CC[C@@]5(C)[C@H](CC[C@@H]6[C@@H]5C[C@@H](O)[C@]5(C)[C@@H](C7=CC(=O)OC7)CC[C@]65O)C4)O[C@@H]3C)O[C@@H]2C)C[C@H](O)[C@@H]1O yielded efflux ratio at 120 min, 0.01 µM of < 2

* * *

Tested on: P-gp
Procedure Text: Bidirectional transport across Caco-2 cell monolayers
Assay Context: human, Caco-2, pH 7.4, with GG918 0.5 µM
Metric: Papp A→B at 120 min, 0.01 µM (nm/s)
One number for each entry, in nm/s.

Measured Papp A→B at 120 min, 0.01 µM, C[C@H]1O[C@@H](O[C@H]2[C@@H](O)C[C@H](O[C@H]3[C@@H](O)C[C@H](O[C@H]4CC[C@@]5(C)[C@H](CC[C@@H]6[C@@H]5C[C@@H](O)[C@]5(C)[C@@H](C7=CC(=O)OC7)CC[C@]65O)C4)O[C@@H]3C)O[C@@H]2C)C[C@H](O)[C@@H]1O [Digoxin, digoxin] : 11.7

* * *

System: P-gp (MDR1)
Procedure Text: Bidirectional transport across MDCK-MDR1 cell monolayers
Type: in vitro ADME, canine
Assay Context: dog, MDCK-MDR1, pH 7.4
Metric: Papp B→A at 120 min, 0.01 µM (×10⁻⁶ cm/s)
Answers are plain numbers, in ×10⁻⁶ cm/s.

Short answer for C[C@H]1O[C@@H](O[C@H]2[C@@H](O)C[C@H](O[C@H]3[C@@H](O)C[C@H](O[C@H]4CC[C@@]5(C)[C@H](CC[C@@H]6[C@@H]5C[C@@H](O)[C@]5(C)[C@@H](C7=CC(=O)OC7)CC[C@]65O)C4)O[C@@H]3C)O[C@@H]2C)C[C@H](O)[C@@H]1O : Papp B→A at 120 min, 0.01 µM was 2

* * *

Test system: P-gp
Procedure Text: Bidirectional transport across Caco-2 cell monolayers
Assay Context: human, Caco-2, pH 7.4, with GG918 0.5 µM
Metric: efflux ratio at 120 min, 0.01 µM

The value of efflux ratio at 120 min, 0.01 µM measured for the compound C[C@H]1O[C@@H](O[C@H]2[C@@H](O)C[C@H](O[C@H]3[C@@H](O)C[C@H](O[C@H]4CC[C@@]5(C)[C@H](CC[C@@H]6[C@@H]5C[C@@H](O)[C@]5(C)[C@@H](C7=CC(=O)OC7)CC[C@]65O)C4)O[C@@H]3C)O[C@@H]2C)C[C@H](O)[C@@H]1O [Digoxin, digoxin] turned out to be < 2
